Provide the reported cytotoxicity at 10 µM of each item.
- experimentDescription: Toxicity liver stage against HepG2, at 10uM
- Type: cell-based
- Design: test concentration 10 uM, cell line HepG2-A16-CD81EGFP
- testContext: human, HepG2-A16-CD81EGFP cells; read-out: INHIBITION
Reply with just the number (in %).

Bench note: what cytotoxicity at 10 µM did Cc1cc(F)ccc1-n1cc(O)c(C(=O)NCC2(O)CCC2)n1 show?
0.477

I'd like to know its cytotoxicity at 10 µM. The compound in question is Cn1c(C2CCCN2C(=O)c2cn(CCN)nn2)nc2ccccc21 (centres undefined)
3.76

What does the record list as cytotoxicity at 10 µM for Cc1ccc(OCCCNC(=O)Cc2nc3ncccn3n2)cc1 ?
-1.08

Would you mind telling me what cytotoxicity at 10 µM value was observed for CCc1nc(-c2ccc(NC(=O)N3CCCC3)cc2)no1 ?
5.03

Can you share its cytotoxicity at 10 µM? I mean this compound: COC1CCN(Cc2csc(C(C)C)n2)CC1
3.32

Find the recorded cytotoxicity at 10 µM belonging to CCc1csc(C2CCCN(C(=O)c3ccc(=O)n(C)n3)C2)n1 (centres undefined) and report it.
-44.1

Which cytotoxicity at 10 µM reading was recorded for the compound O=C(c1ccnnc1)N1CC[C@H](OCC2CC2)[C@@H]1Cc1ccncc1 ?
-1.43

Need cytotoxicity at 10 µM, item Cc1cc(C)n(-c2cncc(N3CCN(C(=O)C(C)(C)C)CC3)n2)n1
-3.22

Please look up its cytotoxicity at 10 µM: Cc1nc(O)c2nnn(C[C@H]3CCCN3C(=O)CCC3CCCC3)c2n1
5.02

State the recorded cytotoxicity at 10 µM for this entry: CN(C)C(=O)CO[C@H]1CO[C@@]2(CCN(S(C)(=O)=O)C2)C1
-106

# query: cytotoxicity at 10 µM of entry CC(=O)Nc1cnc(-n2ccnc2)nc1
-1.25

Value lookup for cytotoxicity at 10 µM; key = CCCn1ccnc1-c1cccc(NC(=O)C2CCCOC2)c1 (centres undefined)
-2.43

Give the measured cytotoxicity at 10 µM of O=C(Cc1ccc2c(c1)CCO2)Nc1ccc(-n2cncn2)nc1 .
3.62

Recorded cytotoxicity at 10 µM of c1ccc(-c2nc(CN3CCOC(Cn4cncn4)C3)cs2)cc1 (centres undefined) , please.
-4.33

Can you look up the measured cytotoxicity at 10 µM of O=C(NCc1noc(C2CCCO2)n1)c1cn2ccsc2n1 (centres undefined) for me?
-3.77

Need cytotoxicity at 10 µM of Cc1cc(S(=O)(=O)N2CC[C@@H](O)C2)c(Cl)cc1F , thanks.
-8.59

For the compound shown here, CCC(Nc1cccc(OC)c1)C(=O)N(CCO)Cc1nccs1 (centres undefined) , give the reported cytotoxicity at 10 µM.
3.94

Look up cytotoxicity at 10 µM for this compound: CC1CCN(S(=O)(=O)N2CCCN(CC3CCCO3)CC2)CC1 (centres undefined)
-5.15

Requested field: cytotoxicity at 10 µM. Item: COc1ccc(CNC(=O)N2CCc3sccc3C2)cc1O
7.57

May I ask what cytotoxicity at 10 µM has been recorded for CCCc1cnc(C)nc1N1CCC(Cn2cc(CN(C)C)nn2)CC1 ?
-4.4

What cytotoxicity at 10 µM value was documented for this compound, CC(=O)Nc1ccc(CN2CCOC2=O)cc1 ?
-6.24

// query cytotoxicity at 10 µM value for entry COc1ccccc1C(=O)N1CCCC1c1nncn1CC(C)C (centres undefined)
-2.96

Which cytotoxicity at 10 µM value is on record for CS(=O)(=O)NCCc1cccc2cccnc12 ?
18.3

Endpoint output: cytotoxicity at 10 µM of CN(C)[C@@H]1CN(Cc2ccco2)C[C@@H]2CCCO[C@@H]21 . Value?
2.75
